measured target: NLRP3 (Homo sapiens, UniProt Q96P20)
Sequence (Q96P20 whole entry): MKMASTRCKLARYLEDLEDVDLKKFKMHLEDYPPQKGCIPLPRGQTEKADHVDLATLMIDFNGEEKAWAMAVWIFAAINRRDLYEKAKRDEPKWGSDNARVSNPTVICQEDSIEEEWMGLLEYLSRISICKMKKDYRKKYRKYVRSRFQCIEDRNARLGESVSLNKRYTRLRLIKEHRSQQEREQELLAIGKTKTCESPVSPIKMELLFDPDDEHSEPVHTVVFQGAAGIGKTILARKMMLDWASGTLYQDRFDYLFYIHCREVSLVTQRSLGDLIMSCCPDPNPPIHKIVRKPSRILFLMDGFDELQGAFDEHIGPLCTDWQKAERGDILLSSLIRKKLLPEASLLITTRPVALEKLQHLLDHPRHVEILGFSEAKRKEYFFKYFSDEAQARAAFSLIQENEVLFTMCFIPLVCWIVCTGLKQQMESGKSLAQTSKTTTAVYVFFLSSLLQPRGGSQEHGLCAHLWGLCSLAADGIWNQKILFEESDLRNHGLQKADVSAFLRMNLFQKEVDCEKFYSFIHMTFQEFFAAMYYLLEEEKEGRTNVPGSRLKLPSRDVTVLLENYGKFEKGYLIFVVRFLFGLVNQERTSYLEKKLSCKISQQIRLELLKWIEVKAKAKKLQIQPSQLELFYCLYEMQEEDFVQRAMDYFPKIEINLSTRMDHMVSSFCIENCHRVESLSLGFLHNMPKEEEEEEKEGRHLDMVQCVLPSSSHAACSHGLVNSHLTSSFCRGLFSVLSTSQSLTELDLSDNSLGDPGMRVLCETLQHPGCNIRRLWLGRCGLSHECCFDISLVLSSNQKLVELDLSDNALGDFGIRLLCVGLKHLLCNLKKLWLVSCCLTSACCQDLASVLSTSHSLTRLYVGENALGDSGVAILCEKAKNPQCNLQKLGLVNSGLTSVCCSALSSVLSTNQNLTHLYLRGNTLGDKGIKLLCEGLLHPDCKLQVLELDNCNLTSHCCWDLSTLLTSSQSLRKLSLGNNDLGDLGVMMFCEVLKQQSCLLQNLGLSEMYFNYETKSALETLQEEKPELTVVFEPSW
experiment notes: IL-1β Secretion Assay (NLRP3-dependent IL1β secretion in THP1 cells)
applied conditions: PMA-differentiated THP-1 cells; compounds incubated 20 h; 2.5 μM Nigericin 3 h; HTRF IL-1β readout; read-out: IC50 IL-1β Inhibition
pIC50: −log10 of the molar value.
Reported values of pIC50 for individual entries

compound=CCN1CC[C@@H](O)[C@@H](Nc2nnc(-c3ccc(C(F)(F)F)cc3OC(F)F)c3cccn23)C1 attribute_measured=pIC50 value_measured="> 9.00"
compound=COc1ccc(-c2nnc(N[C@@H]3CCCN(C)C3)n3cccc23)c(Br)c1 attribute_measured=pIC50 value_measured="7.00 to 8.00"
compound=CN1CCC[C@@H](Nc2nnc(-c3ccc(C4CC4)cc3CC(F)(F)F)c3cncn23)C1 attribute_measured=pIC50 value_measured="8.00 to 9.00"
compound=Cc1ccc(-c2nnc(N[C@@H]3CCCN(CCO)C3)n3cncc23)c(OC(F)(F)F)c1 attribute_measured=pIC50 value_measured="7.00 to 8.00"

Req: Could you share which pIC50 value was measured for COc1ccc(-c2nnc(N[C@@H]3CCCC[C@H]3O)n3cc(C)cc23)c(OC(F)(F)F)c1 ?
Resp: 7.00 to 8.00

Req: Please do the same for Cc1ncn2c(N[C@@H]3CCCC[C@H]3O)nnc(-c3ccc(C(F)(F)F)cc3CC(F)(F)F)c12 as well.
Resp: 8.00 to 9.00

Req: Subsequent entry: COc1ccc(-c2nnc(Nc3cc[nH]n3)n3cncc23)c(OC(F)(F)F)c1
Resp: 6.52 to 7.00

Req: What about this compound? O[C@@H]1CCCC[C@H]1Nc1nnc(-c2ccc(C(F)(F)F)cc2OC(F)(F)F)c2cccn12
Resp: 8.00 to 9.00

Req: Proceed to CCN1CCC[C@@H](Nc2nnc(-c3ccc(OC(F)F)cc3OC(F)(F)F)c3cccn23)C1
Resp: > 9.00

Req: Moving on to the next compound: CC(Nc1nnc(-c2ccc(C(F)(F)F)cc2OC(F)F)c2cccn12)c1cccc(O)c1 (stereo not shown)
Resp: 8.00 to 9.00
